Measured values drawn from ChEMBL document CHEMBL1129353 for this set.

- test: Dissociation constant was evaluated
- Format: physicochemical
Give pKa for every item shown.
Give bare numbers.

[[record]]
compound = "NCC(F)(F)CC(N)C(=O)O (configuration not stated)"
readout = "pKa"
value_observed = 6.9


Consider the additional compound presented here.
Input line: Which value of pKa has been reported for CN(Cc1cnc2nc(N)nc(N)c2n1)c1ccc(C(=O)NC(CCCN)C(=O)O)cc1 (configuration not stated) in the records?
Output line: 10.8

###

- system: Dihydrofolate reductase (Homo sapiens, UniProt P00374)
- Sequence (P00374 whole entry): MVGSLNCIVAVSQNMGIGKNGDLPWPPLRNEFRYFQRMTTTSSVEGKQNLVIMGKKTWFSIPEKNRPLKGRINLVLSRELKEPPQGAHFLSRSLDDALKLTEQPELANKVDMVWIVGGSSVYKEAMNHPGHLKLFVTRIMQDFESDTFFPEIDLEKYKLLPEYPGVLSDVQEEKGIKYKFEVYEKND
- test: Inhibitory concentration against dihydrofolate reductase enzyme (DHFR) enzyme isolated from CCRF-CEM human leukemia cells.
- Type: cell-free
readout: pIC50
Give bare numbers, as −log10 of the molar value.

[[record]]
molecule = "CN(Cc1cnc2nc(N)nc(N)c2n1)c1ccc(C(=O)NC(CC(F)(F)CN)C(=O)O)cc1 (configuration not stated)"
value_observed = 8.89


Turning now to a further record.
Input line: Report pIC50 for CN(Cc1cnc2nc(N)nc(N)c2n1)c1ccc(C(=O)NC(CCCN)C(=O)O)cc1 (configuration not stated) please.
Output line: 8.60
